Hello, the source for this data is patent US20180319855A1, in case you need it.

experiment: Thermostability: relative bioluminescence activity after 30 min incubation; format: physicochemical; details: 40° C. for 30 min; CLZ-f
Field: Thermostability, luminescence activity relative to wt-aequorin. Provide a value for each of the molecules that follow.
Enter a number only.

Challenge: Query (molecule): Q159D: apoaequorin mutant, glutamine 159 replaced by aspartic acid (SEQ ID NO:5) (protein, mutant aequorin) SKLTSDFDNPRWIGRHKHMFNFLDVNHNGKISLDEMVYKASDIVINNLGATPEQAKRHKDAVEAFFGGAGMKYGVETDWPAYIEGWKKLATDELEKYAKNEPTLIRIWGDALFDIVDKDQNGAITLDEWKAYTKAAGIIQSSEDCEETFRVCDIDESGDLDVDEMTRQHLGFWYTMDPACEKLYGGAVP ; field requested: Thermostability, luminescence activity relative to wt-aequorin
Response given: 1.00

Challenge: Query (molecule): S157D: apoaequorin mutant, serine 157 replaced by aspartic acid (SEQ ID NO:12) (protein, mutant aequorin) SKLTSDFDNPRWIGRHKHMFNFLDVNHNGKISLDEMVYKASDIVINNLGATPEQAKRHKDAVEAFFGGAGMKYGVETDWPAYIEGWKKLATDELEKYAKNEPTLIRIWGDALFDIVDKDQNGAITLDEWKAYTKAAGIIQSSEDCEETFRVCDIDEDGQLDVDEMTRQHLGFWYTMDPACEKLYGGAVP ; field requested: Thermostability, luminescence activity relative to wt-aequorin
Response given: 0.71

Challenge: Query (molecule): Aeq-wt: wild-type aequorin: apoaequorin of Aequorea victoria (SEQ ID NO:1) reconstituted with coelenterazine (protein, listed as Aequorea aequorea, reconstituted with coelenterazine; SITE (1)..(189) wild-type aequorin) SKLTSDFDNPRWIGRHKHMFNFLDVNHNGKISLDEMVYKASDIVINNLGATPEQAKRHKDAVEAFFGGAGMKYGVETDWPAYIEGWKKLATDELEKYAKNEPTLIRIWGDALFDIVDKDQNGAITLDEWKAYTKAAGIIQSSEDCEETFRVCDIDESGQLDVDEMTRQHLGFWYTMDPACEKLYGGAVP ; field requested: Thermostability, luminescence activity relative to wt-aequorin
Response given: 1.00

Challenge: Query (molecule): QD + AD: apoaequorin double mutant Q159D + A123D (SEQ ID NO:15) (protein, mutant aequorin) SKLTSDFDNPRWIGRHKHMFNFLDVNHNGKISLDEMVYKASDIVINNLGATPEQAKRHKDAVEAFFGGAGMKYGVETDWPAYIEGWKKLATDELEKYAKNEPTLIRIWGDALFDIVDKDQNGDITLDEWKAYTKAAGIIQSSEDCEETFRVCDIDESGDLDVDEMTRQHLGFWYTMDPACEKLYGGAVP ; field requested: Thermostability, luminescence activity relative to wt-aequorin
Response given: 0.94

Challenge: Query (molecule): Q159T: apoaequorin mutant, glutamine 159 replaced by threonine (SEQ ID NO:6) (protein, mutant aequorin) SKLTSDFDNPRWIGRHKHMFNFLDVNHNGKISLDEMVYKASDIVINNLGATPEQAKRHKDAVEAFFGGAGMKYGVETDWPAYIEGWKKLATDELEKYAKNEPTLIRIWGDALFDIVDKDQNGAITLDEWKAYTKAAGIIQSSEDCEETFRVCDIDESGTLDVDEMTRQHLGFWYTMDPACEKLYGGAVP ; field requested: Thermostability, luminescence activity relative to wt-aequorin
Response given: 0.96
